Molecular target: T1, recombinant purified human IL-12 p70 (human, UniProt P29459 23-219)
T1 construct: Disulfide-linked heterodimer of p35 and p40; also called hIL-12; Hu IL-12
T1 sequence 1: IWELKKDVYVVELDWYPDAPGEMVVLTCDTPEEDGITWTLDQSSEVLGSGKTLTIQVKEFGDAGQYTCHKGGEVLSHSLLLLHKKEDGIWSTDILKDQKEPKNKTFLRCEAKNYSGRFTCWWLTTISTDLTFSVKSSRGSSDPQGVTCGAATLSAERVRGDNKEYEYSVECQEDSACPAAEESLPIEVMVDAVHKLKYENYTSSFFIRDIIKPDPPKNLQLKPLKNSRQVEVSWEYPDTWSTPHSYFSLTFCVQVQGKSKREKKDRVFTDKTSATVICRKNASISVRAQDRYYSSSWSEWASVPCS
T1 sequence 2: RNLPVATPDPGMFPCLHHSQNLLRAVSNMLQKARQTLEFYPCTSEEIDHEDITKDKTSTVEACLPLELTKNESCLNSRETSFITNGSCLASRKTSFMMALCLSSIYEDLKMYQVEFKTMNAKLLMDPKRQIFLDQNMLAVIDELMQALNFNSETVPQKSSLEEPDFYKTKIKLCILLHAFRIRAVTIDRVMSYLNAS
Assay: SPR (Biacore) as in Example 1.1.B, human IL-12p70
assay_endpoint: Kd
Kindly format the answer as number then unit.

Answered examples (2):
CDR grafted anti IL-12p40 antibody 1D4.1 (antibody, human IgG1, kappa, L234A L235A, V domains shown, Full-length CDR-grafted antibody, COS cells) VH: EVTLRESGPALVKPTQTLTLTCTFSGFSLSKSVMGVSWIRQPPGKALEWLAHIYWDDDKYYNPSLKSRLTISKDTSKNQVVLTMTNMDPVDTATYYCARRGIRSAMDYWGQGTTVTVSS VL: DIVMTQSPDSLAVSLGERATINCKASQSVSNDVAWYQQKPGQPPKLLIYYASNRYTGVPDRFSGSGSGTDFTLTISSLQAEDVAVYYCQQDYNSPWTFGGGTKVEIKR; 0.12 nM
CDR grafted anti IL-12p40 antibody 1D4.3 (antibody, human IgG1, kappa, L234A L235A, V domains shown, Full-length CDR-grafted antibody, COS cells) VH: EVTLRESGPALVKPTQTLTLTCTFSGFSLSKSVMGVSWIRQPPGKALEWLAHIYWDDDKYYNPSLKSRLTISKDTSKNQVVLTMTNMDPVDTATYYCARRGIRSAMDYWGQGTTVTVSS VL: EIVMTQSPATLSVSPGERATLSCKASQSVSNDVAWYQQKPGQAPRLLIYYASNRYTGIPARFSGSGSGTEFTLTISSLQSEDFAVYYCQQDYNSPWTFGGGTKVEIKR; 0.25 nM

--- query ---
Check the records and state Kd for CDR grafted anti IL-12p40 antibody 1D4.2 (antibody, human IgG1, kappa, L234A L235A, V domains shown, Full-length CDR-grafted antibody, COS cells) VH: EVTLKESGPVLVKPTETLTLTCTVSGFSLSKSVMGVSWIRQPPGKALEWLAHIYWDDDKYYNPSLKSRLTISKDTSKSQVVLTMTNMDPVDTATYYCARRGIRSAMDYWGQGTTVTVSS VL: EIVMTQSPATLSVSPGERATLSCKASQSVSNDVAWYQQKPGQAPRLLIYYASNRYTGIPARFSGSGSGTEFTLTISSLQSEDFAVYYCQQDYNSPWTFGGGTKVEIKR
1.7 nM
